These measurements were taken from ChEMBL document CHEMBL1131875.

Below: a set of entries, each annotated with reported pIC50.
assayed.target: Matrix metalloproteinase-9 (Homo sapiens)
Sequence (P14780 whole entry): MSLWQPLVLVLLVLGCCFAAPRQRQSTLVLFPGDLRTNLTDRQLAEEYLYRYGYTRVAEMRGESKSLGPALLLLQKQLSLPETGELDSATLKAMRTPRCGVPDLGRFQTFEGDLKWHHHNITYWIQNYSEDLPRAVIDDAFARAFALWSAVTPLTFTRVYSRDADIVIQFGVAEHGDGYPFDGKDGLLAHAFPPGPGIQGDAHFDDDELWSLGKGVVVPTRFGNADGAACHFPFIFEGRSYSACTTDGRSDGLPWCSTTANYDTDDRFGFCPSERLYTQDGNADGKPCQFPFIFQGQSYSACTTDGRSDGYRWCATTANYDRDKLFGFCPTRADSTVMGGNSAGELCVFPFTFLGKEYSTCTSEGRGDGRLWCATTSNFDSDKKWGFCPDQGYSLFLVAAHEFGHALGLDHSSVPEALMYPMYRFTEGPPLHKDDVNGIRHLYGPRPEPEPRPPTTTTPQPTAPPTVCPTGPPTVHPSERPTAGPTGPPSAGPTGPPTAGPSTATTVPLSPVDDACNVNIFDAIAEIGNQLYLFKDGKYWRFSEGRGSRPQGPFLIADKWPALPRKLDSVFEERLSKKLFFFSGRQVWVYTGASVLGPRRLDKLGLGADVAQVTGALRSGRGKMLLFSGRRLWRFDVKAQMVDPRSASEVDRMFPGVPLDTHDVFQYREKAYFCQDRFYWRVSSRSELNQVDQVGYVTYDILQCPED
pIC50: −log10 of the molar value.

| molecule | assayed.target | pIC50 |
| --- | --- | --- |
| NC(=O)[C@H](Cc1ccccc1)NC(=O)[C@H](Cc1ccc2cc(F)ccc2c1)[C@H](O)C(=O)NO | Matrix metalloproteinase-9 (Homo sapiens) | 6.07 |
| CC(C)(C)[C@H](NC(=O)C(Cc1cnc2ccccc2c1)C(O)C(=O)NO)C(N)=O (single isomer, unassigned) | Matrix metalloproteinase-9 (Homo sapiens) | 6.72 |
